Measured values drawn from patent US20150030595A1 for this set.

# SYSTEM NAME: anti-myc antibody coated on the ELISA plate
# TEST METHOD NOTES: phage ELISA, anti-myc coated
For each record, check the reported OD490: if it is below 0.7 OD write 1 (yes), else write 0 (no).

Input DLK1 A10 (monoclonal scFv-phage) (scFv, V domains shown) VH: QVQLVESGGGLVQPGRSLRLSCAASGFTFDDYAMHWVRQAPGKGLEWVSGISWNSGSIGYADSVKGRFTISRDNAKNSLYLQMNSLRAEDTAVYYCARGPGLATGKGYADYWGQGTLVTVSS VL: DIQMTQSPSSVSASVGDRVTITCRASQRISSWLAWYQQKPGRAPKLLIHSASTLHNGVPSRFSGSASGTDFTLTISSLQPEDYAIYYCQQGHSFPYTFGQGTKLEIK ; condition: OD490 strictly below 0.7 OD. Does it hold?
0 (no)

Item: DLK1 H06 (monoclonal scFv-phage) (scFv, V domains shown) VH: QVQLVQSGGGLIQPGGSLRLSCAASGFTFSLYGMSWVRQAPGKGLEWVSSIPGSGTRTHYADSVKGRFTISRDNSKNTLFLQMNSLRAEDTAVYYCAKSTAYLFDYWGPGTLVTVSS VL: DIQMTQSPATLSLSPGERATLSCRASQSIRHYLAWYQQKPGQAPRLLIHGASSRATGIPDRFSGSGSGTDFTLTISRLEPEDFAVYYCQHYGSPLHSFGPGTKVEIK
0 (no)

Item: ACVR2B A07 (monoclonal scFv-phage) (scFv, V domains shown, scFv linker not given) VH: QLVESGGGLVRPGRSLTLSCTASGFTFNDYAMHWVRQAPGKGLEWVSGISWNTNSKAYADSVKGRFIISRDNAKNSLYLEMNSLRAEDTAVYYCVRDGGRFYYGLDVWGQGTSVTVSS VL: DIVMTQTPVSSPVTLGQPASISCRSSQSLIHSDGNTYLSWIQQRPGQPPRLLIYKISNRFSGVPDRFSGSGAGTDFTLKISRVEAEDVGVYYCAETSQVPHTFGQGTKVEIK
1 (yes)

Item: DLK1 A04 (monoclonal scFv-phage) (scFv, V domains shown) VH: QVQLVESGAEVKKPGASVKVSCKASGYTFKDYAIHWVRQAPGQRLEWMGWINPGSGNTKYSHNFEGRVILTRDASANTAYLELPSLRSEDTAVYYCARSVSAYGSNYFDPWGQGTLITVSS VL: DIQMTQSPSSLSASVGDRVTITCQASQDISNYLNWYQQKPGKAPKLLIYSTSNLQSGVPSRFSGSGSGTDFTLTISSLQPEDFATYYCQQLNSYPLTFGGGTKVDIK
1 (yes)

Item: DLK1 H12 (monoclonal scFv-phage) (scFv, V domains shown) VH: QVQLVQSGGGLVKPGGSLRLSCAASEFTFSDYYMSWVRQAPGKGLEWLSYISGSGITTYYADSVKGRFTISRDNGKKSLYLEMNSLRAEDTAVYYCARLQGHCSGGACSNWFDAWGQGTLITVSS VL: DIQMTQSPSSLSASVGDRLTITCRASQSILTYLNWYQQKPGKAPKLLIYAASSLQRGVPSRFSGSGSGTDFTLTISGLQPEDFATYYCQQGYGTPYTFGQGTKVDIK
1 (yes)

Item: DLK1 B09 (monoclonal scFv-phage) (scFv, V domains shown) VH: QMQLVESGGRLVRPGGSLRLSCAASGFPFTSYAMNWVRQTPGKGLEWVSTITATSGKTYYADSVKGRFTISRDNSRNTLFLQMNSLRAEDTAVYYCVRGESCSGGACSDFDYWGQGALVTVSS VL: QLVLTQPASVSGSPGQSVTISCTGTSSDIGRYNRVSWYQHHPGKAPKLILNDVTTRPSGFSNRFSGSKSGNTASLTISGLQAEDEADYSCGSYAGSYTYVFGTGTKVTVL
1 (yes)

Item: DLK1 A05 (monoclonal scFv-phage) (scFv, V domains shown) VH: QMQLVESGGGLVQPGRSLRLSCAASGFTFDEHAMHWVRQAPGKGLEWVSGINWNSGKTGYADSVKGRFTISRDNGKNSLYLQMNSLRAEDTAVYYCAKSGGYGGNTNWYFDLWGRGTLVTVSS VL: QFVLTQPPSVSGAPGQNVTISCIGTSSNIGVGYDVHWYQQVPGTAPKLLVYGNNNRPSGVPDRFSGSKSGTSASLAITGLQAEDEADYYCQSYDSRLGVVFGGGTKLTVL
0 (no)
